All values here come from patent US20230212554A1.

Reported EC50 values for the following binders.
targetDesc: NP of A/California/07/2009(H1N1/H1S) (influenza A virus, NYMC X-181 derived …)
Sequence (P03466 whole entry): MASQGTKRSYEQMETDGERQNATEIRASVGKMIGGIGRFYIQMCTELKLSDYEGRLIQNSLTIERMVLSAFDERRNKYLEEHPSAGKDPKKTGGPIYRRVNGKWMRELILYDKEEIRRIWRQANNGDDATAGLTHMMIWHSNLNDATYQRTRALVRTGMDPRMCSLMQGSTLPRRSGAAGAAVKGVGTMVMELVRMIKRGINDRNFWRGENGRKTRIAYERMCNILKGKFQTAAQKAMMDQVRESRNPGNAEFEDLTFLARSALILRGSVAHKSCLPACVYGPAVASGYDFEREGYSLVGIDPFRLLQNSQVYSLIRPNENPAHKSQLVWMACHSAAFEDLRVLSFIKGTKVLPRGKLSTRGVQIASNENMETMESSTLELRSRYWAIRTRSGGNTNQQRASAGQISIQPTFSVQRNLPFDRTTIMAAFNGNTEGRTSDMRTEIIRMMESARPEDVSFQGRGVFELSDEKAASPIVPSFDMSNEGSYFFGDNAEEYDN
testName: ELISA on virus-infected fixed MDCK cells
Quick note: give the figure in nM, leave out the unit.

# binder, EC50 (nM)
rows = [
    ("NP21 (antibody, V domains shown) VH: EVQLVESGGGLVQPGGSLRLSCAASGFTINGYGIHWVRQAPGKGLEWVAGIWPYGGSTFYADSVKGRFTISADTSKNTAYLQMNSLRAEDTAVYYCARFYNNHGGIMDYWGQGTLVTVSS VL: DIQMTQSPSSLSASVGDRVTITCRASQDVYFYVAWYQQKPGKAPKLLIYGSRWLYSGVPSRFSGSGSGTDFTLTISSLQPEDFATYYCQQYSNFPVTFGQGTKVEIKR", 0.73),
]

Exercise: Quick one: EC50 for NP13 (antibody, V domains shown) VH: EVQLVESGGGLVQPGGSLRLSCAASGFTINNYGIHWVRQAPGKGLEWVASIGPYGGSTYYADSVKGRFTISADTSKNTAYLQMNSLRAEDTAVYYCARFGYFNWLDMDYWGQGTLVTVSS VL: DIQMTQSPSSLSASVGDRVTITCRASQDVGYWVAWYQQKPGKAPKLLISSASGLYSGVPSRFSGSGSGTDFTLTISSLQPEDFATYYCQQGWDWPITFGQGTKVEIKR ?
Key: 1.68

Exercise: Quick one: EC50 for NP15 (antibody, V domains shown) VH: EVQLVESGGGLVQPGGSLRLSCAASGFTISNWYIHWVRQAPGKGLEWVAGIGPYGGSTYYADSVKGRFTISADTSKNTAYLQMNSLRAEDTAVYYCARFHWDHLHGMDYWGQGTLVTVSS VL: DIQMTQSPSSLSASVGDRVTITCRASQDVDNNVAWYQQKPGKAPKLLISYSTGLYSGVPSRFSGSGSGTDFTLTISSLQPEDFATYYCQQYWNYPITFGQGTKVEIKR ?
Key: 0.249
